biological target: HIV-1 Tat (Human immunodeficiency virus 1, UniProt P04608 P04608:1-86); test: competition; D1/2; unmodified 18+15 duplex 65 nM; settings: duplex with bulge
Measure: pIC50
One number for each entry, as −log10 of the molar value.

[[record]]
binder = "18+15 duplex 4-thioT-23 (dsRNA, 4-thio-2'-deoxythymidine at U23 (nt 8) [8 (strand 1, 4-thio-2'-deoxythymidine)]) RNA 1: AGCCAGATUUGAGCAGCU RNA 2: AGCUGCUCUCUGGCU"
observed_measurement = 7.49


Attention now turns to another entry.
Quote pIC50 reported for 18+15 duplex 4-thioT-24 (dsRNA, 4-thio-2'-deoxythymidine at U24 (nt 9) [9 (strand 1, 4-thio-2'-deoxythymidine)]) RNA 1: AGCCAGAUTUGAGCAGCU RNA 2: AGCUGCUCUCUGGCU please.
7.60
